# Experimental Protocol: Phase 2a trial, plasma pharmacokinetics
# Type: in vivo, human
# Stated Conditions: human, plasma; AD patients, 100 mg oral twice daily
Measure Name: half-life

1. CN1CCC2(CC1)NCC(=O)N2Cc1ccccc1    4.5 h
